For each entry below, report its PTS ΔTm value.
target: PD-L1 (Homo sapiens, UniProt Q9NZQ7); construct: purchased ab167713; assay: Protein thermal shift (PTS) assay; assay type: binding; settings: shift of PD-L1 melting temperature vs DMSO
Sequence (Q9NZQ7 19-290): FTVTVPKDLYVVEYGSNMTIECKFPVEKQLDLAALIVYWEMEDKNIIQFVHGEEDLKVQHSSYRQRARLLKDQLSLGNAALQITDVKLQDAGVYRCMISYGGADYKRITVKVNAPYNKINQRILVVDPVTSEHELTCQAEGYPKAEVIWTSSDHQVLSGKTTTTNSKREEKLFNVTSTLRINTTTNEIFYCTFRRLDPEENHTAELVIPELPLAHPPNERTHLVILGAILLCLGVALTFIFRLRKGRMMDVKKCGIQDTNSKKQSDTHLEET

Problem: Notebook entry, PD-L1 (Homo sapiens, UniProt Q9NZQ7) assay: PTS ΔTm of Nc1ccc(-c2cn(Cc3cccc(Cl)c3)nn2)cc1 = ?
Solution: −8 °C

Problem: Follow-up item: Nc1ccc(-c2cn(Cc3ccccc3Cl)nn2)cc1
Solution: −4 °C

Problem: Follow-up item: Nc1ccc(-c2cn(Cc3ccc(Cl)cc3)nn2)cc1
Solution: −5 °C

Problem: Follow-up item: Cc1c(COc2ccc(CN3CCCCC3C(=O)O)cc2Br)cccc1-c1ccccc1 (stereo not shown) [BMS-8, reference compound]
Solution: +4 °C

----------
For each entry below, report its melting point value.

Problem: Query: melting point; subject: Cc1ccc(Cn2cc(-c3ccc(N)cc3)nn2)cc1
Solution: 130 to 132 °C

Problem: Follow-up item: Brc1cccc(Cn2cc(-c3ccccc3)nn2)c1
Solution: 96 to 99 °C

Problem: Follow-up item: Brc1ccc(Cn2cc(-c3ccccc3)nn2)cc1
Solution: 153 to 155 °C

Problem: Follow-up item: Clc1cccc(Cn2cc(-c3ccccc3)nn2)c1
Solution: 108 to 110 °C

Problem: Follow-up item: COc1ccc(Cn2cc(-c3ccc(N)cc3)nn2)cc1
Solution: 132 to 134 °C

Problem: Follow-up item: COc1ccccc1Cn1cc(-c2ccc(N)cc2)nn1
Solution: 166 to 167 °C

Problem: Follow-up item: COc1cccc(Cn2cc(-c3ccc(N)cc3)nn2)c1
Solution: 103 to 105 °C

Problem: Follow-up item: Nc1ccc(-c2cn(Cc3ccc(Cl)cc3)nn2)cc1
Solution: 164 to 166 °C

Problem: Follow-up item: Nc1ccc(-c2cn(Cc3ccc(Br)cc3)nn2)cc1
Solution: 169 to 170 °C

----------
biological target: PD-L1 (Homo sapiens); construct: purchased ab167713; assay: Protein thermal shift (PTS) assay; type: binding; details: PD-L1 melting temperature; DMSO 34 °C
PARAMETER: PTS Tm

Problem: Query: PTS Tm; subject: Nc1ccc(-c2cn(Cc3ccccc3Cl)nn2)cc1
Solution: 30 °C

Problem: Follow-up item: Nc1ccc(-c2cn(Cc3cccc(Cl)c3)nn2)cc1
Solution: 26 °C

Problem: Follow-up item: Cc1c(COc2ccc(CN3CCCCC3C(=O)O)cc2Br)cccc1-c1ccccc1 (stereo not shown) [BMS-8, reference compound]
Solution: 38 °C

Problem: Follow-up item: Nc1ccc(-c2cn(Cc3ccc(Cl)cc3)nn2)cc1
Solution: 29 °C

----------
system: c-Myc; experiment: c-Myc relative quantification by flow cytometry; assay type: cell-based, human; conditions: HT-29; 24 h; 100 or 10 μM (Table 7); relative to DMSO control
PARAMETER: c-Myc relative detection, HT-29

Problem: Query: c-Myc relative detection, HT-29; subject: Nc1ccc(-c2cn(Cc3ccc(Br)cc3)nn2)cc1 [Compound 26]
Solution: >100%

Problem: Follow-up item: Nc1ccc(-c2cn(Cc3ccccc3)nn2)cc1 [Compound 14]
Solution: >100%

Problem: Follow-up item: Nc1ccc(-c2cn(Cc3ccccc3Br)nn2)cc1 [Compound 24]
Solution: >100%

Problem: Follow-up item: Nc1ccc(-c2cn(Cc3cccc(Br)c3)nn2)cc1 [Compound 25]
Solution: >100%

Problem: Follow-up item: Nc1ccc(-c2cn(Cc3ccccc3Cl)nn2)cc1 [Compound 21]
Solution: >100%

Problem: Follow-up item: Cc1ccc(Cn2cc(-c3ccc(N)cc3)nn2)cc1 [Compound 17]
Solution: >100%

Problem: Follow-up item: COc1ccc(Cn2cc(-c3ccc(N)cc3)nn2)cc1 [Compound 20]
Solution: 74 ± 23%

Problem: Follow-up item: COc1ccccc1Cn1cc(-c2ccc(N)cc2)nn1 [Compound 18]
Solution: >100%

Problem: Follow-up item: Cc1c(COc2ccc(CN3CCCCC3C(=O)O)cc2Br)cccc1-c1ccccc1 (centres unmarked) [BMS-8, reference compound]
Solution: 99 ± 7%

Problem: Follow-up item: Cc1ccccc1Cn1cc(-c2ccc(N)cc2)nn1 [Compound 15]
Solution: >100%

Problem: Follow-up item: Nc1ccc(-c2cn(Cc3cccc(Cl)c3)nn2)cc1 [Compound 22]
Solution: >100%

Problem: Follow-up item: Cc1cccc(Cn2cc(-c3ccc(N)cc3)nn2)c1 [Compound 16]
Solution: >100%

Problem: Follow-up item: Nc1ccc(-c2cn(Cc3ccc(Cl)cc3)nn2)cc1 [Compound 23]
Solution: 84 ± 5%

Problem: Follow-up item: COc1cccc(Cn2cc(-c3ccc(N)cc3)nn2)c1 [Compound 19]
Solution: >100%

----------
PARAMETER: melting point

Problem: Query: melting point; subject: Clc1ccccc1Cn1cc(-c2ccccc2)nn1
Solution: 86 to 88 °C

Problem: Follow-up item: Cc1cccc(Cn2cc(-c3ccc(N)cc3)nn2)c1
Solution: 128 to 129 °C

Problem: Follow-up item: Nc1ccc(-c2cn(Cc3ccccc3Cl)nn2)cc1
Solution: 112 to 115 °C

Problem: Follow-up item: Clc1ccc(Cn2cc(-c3ccccc3)nn2)cc1
Solution: 141 to 144 °C

Problem: Follow-up item: Nc1ccc(-c2cn(Cc3cccc(Br)c3)nn2)cc1
Solution: 134 to 135 °C

Problem: Follow-up item: Cc1ccccc1Cn1cc(-c2ccc(N)cc2)nn1
Solution: 131 to 133 °C

Problem: Follow-up item: Nc1ccc(-c2cn(Cc3ccccc3Br)nn2)cc1
Solution: 133 to 134 °C

Problem: Follow-up item: Nc1ccc(-c2cn(Cc3ccccc3)nn2)cc1
Solution: 180 to 181 °C

Problem: Follow-up item: Nc1ccc(-c2cn(Cc3cccc(Cl)c3)nn2)cc1
Solution: 143 to 144 °C

Problem: Follow-up item: Brc1ccccc1Cn1cc(-c2ccccc2)nn1
Solution: 100 to 103 °C

----------
Target: total PD-L1 (tPD-L1) (Homo sapiens, UniProt Q9NZQ7)
Construct: endogenous in cells; host or cells: HT-29, A-549, MCF-7
Sequence (Q9NZQ7 19-290): as above
Assay: Total PD-L1 relative quantification by flow cytometry
Type: cell-based
Conditions: HT-29; 24 h; 100 or 10 μM (Table 7); relative to DMSO control
Procedure: The study was carried out again on HT-29, A-549, and MCF-7 cell lines by flow cytometry after 24 h of treatment with the corresponding compounds. The presence of the targets in the whole cell were relatively determined by using DMSO-treated cells as a negative control and BMS-8 as a positive one for PD-L1 (Table 3). To study the effect of the compounds on every biological target in cancer cell lines the compounds were used at a 100 or 10 μM dose, depending on their IC50 and the treated cell line. […]
In this scheme, each record receives a class according to its tPD-L1 relative detection, HT-29; the ranges are interval 1 = under 50%, interval 2 = from 50% up to 60%, interval 3 = 60% and over

Problem: Classify this molecule: COc1ccc(Cn2cc(-c3ccc(N)cc3)nn2)cc1 [Compound 20]
Solution: interval 3

Problem: Follow-up item: COc1ccccc1Cn1cc(-c2ccc(N)cc2)nn1 [Compound 18]
Solution: interval 3

Problem: Follow-up item: COc1cccc(Cn2cc(-c3ccc(N)cc3)nn2)c1 [Compound 19]
Solution: interval 3

Problem: Follow-up item: Cc1c(COc2ccc(CN3CCCCC3C(=O)O)cc2Br)cccc1-c1ccccc1 (centres unmarked) [BMS-8, reference compound]
Solution: interval 3

Problem: Follow-up item: Nc1ccc(-c2cn(Cc3ccccc3Br)nn2)cc1 [Compound 24]
Solution: interval 1

Problem: Follow-up item: Cc1cccc(Cn2cc(-c3ccc(N)cc3)nn2)c1 [Compound 16]
Solution: interval 3

Problem: Follow-up item: Nc1ccc(-c2cn(Cc3ccccc3)nn2)cc1 [Compound 14]
Solution: interval 3

Problem: Follow-up item: Nc1ccc(-c2cn(Cc3cccc(Cl)c3)nn2)cc1 [Compound 22]
Solution: interval 2

Problem: Follow-up item: Cc1ccccc1Cn1cc(-c2ccc(N)cc2)nn1 [Compound 15]
Solution: interval 3

Problem: Follow-up item: Nc1ccc(-c2cn(Cc3cccc(Br)c3)nn2)cc1 [Compound 25]
Solution: interval 1

Problem: Follow-up item: Nc1ccc(-c2cn(Cc3ccc(Cl)cc3)nn2)cc1 [Compound 23]
Solution: interval 2

Problem: Follow-up item: Cc1ccc(Cn2cc(-c3ccc(N)cc3)nn2)cc1 [Compound 17]
Solution: interval 3

----------
target: total PD-L1 (tPD-L1) (Homo sapiens); construct: endogenous in cells; host or cells: HT-29, A-549, MCF-7; experiment: Total PD-L1 relative quantification by flow cytometry; type: cell-based; settings: A-549; 24 h; 100 or 10 μM (Table 7); relative to DMSO control
PARAMETER: tPD-L1 relative detection, A-549

Problem: Query: tPD-L1 relative detection, A-549; subject: Cc1ccccc1Cn1cc(-c2ccc(N)cc2)nn1 [Compound 15]
Solution: >100%

Problem: Follow-up item: Cc1ccc(Cn2cc(-c3ccc(N)cc3)nn2)cc1 [Compound 17]
Solution: 56 ± 19%

Problem: Follow-up item: Nc1ccc(-c2cn(Cc3ccccc3Cl)nn2)cc1 [Compound 21]
Solution: 78 ± 9%

Problem: Follow-up item: COc1cccc(Cn2cc(-c3ccc(N)cc3)nn2)c1 [Compound 19]
Solution: >100%

Problem: Follow-up item: Nc1ccc(-c2cn(Cc3cccc(Cl)c3)nn2)cc1 [Compound 22]
Solution: 75 ± 10%

Problem: Follow-up item: Nc1ccc(-c2cn(Cc3ccccc3Br)nn2)cc1 [Compound 24]
Solution: 56 ± 7%

Problem: Follow-up item: Cc1c(COc2ccc(CN3CCCCC3C(=O)O)cc2Br)cccc1-c1ccccc1 (stereo not shown) [BMS-8, reference compound]
Solution: 66 ± 8%

Problem: Follow-up item: COc1ccccc1Cn1cc(-c2ccc(N)cc2)nn1 [Compound 18]
Solution: 91 ± 4%

Problem: Follow-up item: Nc1ccc(-c2cn(Cc3ccccc3)nn2)cc1 [Compound 14]
Solution: 98 ± 3%

Problem: Follow-up item: Nc1ccc(-c2cn(Cc3ccc(Br)cc3)nn2)cc1 [Compound 26]
Solution: 80 ± 12%
